Where do the numbers come from? From patent US4185119A.

PROCEDURE SUMMARY: Acute toxicity in mice
REPORTED CONDITIONS: mouse, in vivo, ip; intraperitoneal, male I.C.R. mice, survivals at one week
Structures can show the parent of a compound that is named as a salt.
Entries annotated with measured LD50 at 168 h
Give just the numeric value; mg/kg need not be written.

COc1cc2c(cc1OC)-c1c(OC)c(OC)cc3c1[C@H](C2)N(C)CC3 [Glaucine, glaucine] :: 212
COc1cc2c(cc1O)C[C@H]1c3c(cc(O)c(OC)c3-2)CCN1C [Boldine, boldine] :: 145

Moving on to the next molecule.
Reported LD50 at 168 h of COc1cc2c(cc1O)CC1c3c(cc(OC)c(OC)c3-2)CCN1C (stereo not drawn) [N-Methyllaurotetanine hydrochloride] : 91.7
